Test system: jimpy (Plp1 jimpy) mouse iPSC-derived oligodendrocyte progenitor cells;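 further: 10 µM single dose with 3-day oligodendrocyte differentiation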
Test: MBP+ mature oligodendrocyte number relative to DMSO vehicle control (SDs above negative control mean); higher = more surviving jimpy oligodendrocytes (rescue)
Conditions: 10 µM; 3 days
Structures can show the parent of a compound that is named as a salt. Whole data set: some 2,600 compounds, median “MBP+ mature oligodendrocyte number relative to DMSO vehicle control” near -0.34, cut for the highest 2% near 13. Only a selection was taken, and the highest values are over-represented in it overall.
measurement kind: MBP+ mature oligodendrocyte number

>  <compound>
COc1ccc2[nH]c3c(c2c1)CCNC3 [6-Methoxy-1,2,3,4-tetrahydro-9H-pyrido[3,4b] indole]

>  <system tested>
jimpy (Plp1 jimpy) mouse iPSC-derived oligodendrocyte progenitor cells;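 further: 10 µM single dose with 3-day oligodendrocyte differentiation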

>  <measurement kind>
MBP+ mature oligodendrocyte number

>  <readout qualifier>
=

>  <assay result>
-0.315

$$$$
>  <compound>
CO[C@H]1CC[C@@H](O[C@H]2C[C@H]([C@]3(C)CC[C@]4(C[C@H](O)[C@@H](C)[C@@H]([C@@H](C)/C=C(\C)C(=O)[C@H](C)C[C@H](C)C(=O)O)O4)O3)O[C@]3(O[C@@H]([C@H]4O[C@@](O)(CO)[C@H](C)C[C@@H]4C)C[C@@H]3C)[C@@H]2C)O[C@@H]1C

>  <system tested>
jimpy (Plp1 jimpy) mouse iPSC-derived oligodendrocyte progenitor cells;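 further: 10 µM single dose with 3-day oligodendrocyte differentiation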

>  <measurement kind>
MBP+ mature oligodendrocyte number

>  <readout qualifier>
<

>  <assay result>
-6.7

$$$$
>  <compound>
CCCC[N+]1(C)[C@@H]2C[C@@H](OC(=O)[C@H](CO)c3ccccc3)C[C@H]1[C@@H]1O[C@@H]12 (single isomer, unassigned; (-)) [(-)-Scopolamine,n-Butyl-, bromide]

>  <system tested>
jimpy (Plp1 jimpy) mouse iPSC-derived oligodendrocyte progenitor cells;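 further: 10 µM single dose with 3-day oligodendrocyte differentiation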

>  <measurement kind>
MBP+ mature oligodendrocyte number

>  <readout qualifier>
=

>  <assay result>
-0.925

$$$$
>  <compound>
CC(C)Oc1cccnc1N(C)C1CCN(Cc2ccccc2)CC1

>  <system tested>
jimpy (Plp1 jimpy) mouse iPSC-derived oligodendrocyte progenitor cells;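 further: 10 µM single dose with 3-day oligodendrocyte differentiation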

>  <measurement kind>
MBP+ mature oligodendrocyte number

>  <readout qualifier>
=

>  <assay result>
19.1

$$$$
>  <compound>
CC(=O)OCC1=C(C(=O)[O-])N2C(=O)[C@@H](NC(=O)CCC[C@@H](N)C(=O)[O-])[C@H]2SC1.[Zn+2] [Cephalosporin C zinc salt]

>  <system tested>
jimpy (Plp1 jimpy) mouse iPSC-derived oligodendrocyte progenitor cells;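 further: 10 µM single dose with 3-day oligodendrocyte differentiation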

>  <measurement kind>
MBP+ mature oligodendrocyte number

>  <readout qualifier>
=

>  <assay result>
-0.943

$$$$
>  <compound>
N[C@]1(C(=O)O)CC[C@H](C(=O)O)C1 (racemic) [trans-(±)-ACPD]

>  <system tested>
jimpy (Plp1 jimpy) mouse iPSC-derived oligodendrocyte progenitor cells;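 further: 10 µM single dose with 3-day oligodendrocyte differentiation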

>  <measurement kind>
MBP+ mature oligodendrocyte number

>  <readout qualifier>
=

>  <assay result>
0.981

$$$$
>  <compound>
OC1CCCCC1N1CCC(c2ccccc2)CC1 (racemic) [(±)-Vesamicol hydrochloride]

>  <system tested>
jimpy (Plp1 jimpy) mouse iPSC-derived oligodendrocyte progenitor cells;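 further: 10 µM single dose with 3-day oligodendrocyte differentiation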

>  <measurement kind>
MBP+ mature oligodendrocyte number

>  <readout qualifier>
=

>  <assay result>
15.7

$$$$
>  <compound>
CN1CC[C@@]2(C)c3cc(O)ccc3N(C)C12 (single isomer, unassigned; (-)) [(-)-Eseroline fumarate]

>  <system tested>
jimpy (Plp1 jimpy) mouse iPSC-derived oligodendrocyte progenitor cells;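 further: 10 µM single dose with 3-day oligodendrocyte differentiation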

>  <measurement kind>
MBP+ mature oligodendrocyte number

>  <readout qualifier>
=

>  <assay result>
-1.28

$$$$
>  <compound>
C[N+]1(C)[C@@H]2CC(OC(=O)[C@H](CO)c3ccccc3)C[C@H]1[C@@H]1O[C@@H]12 (single isomer, unassigned; (-)) [(-)-Scopolamine methyl nitrate]

>  <system tested>
jimpy (Plp1 jimpy) mouse iPSC-derived oligodendrocyte progenitor cells;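 further: 10 µM single dose with 3-day oligodendrocyte differentiation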

>  <measurement kind>
MBP+ mature oligodendrocyte number

>  <readout qualifier>
=

>  <assay result>
0.539

$$$$
>  <compound>
Cc1ccc2c(c1)C1(CCN(CCc3nc(-c4ccccc4)oc3C)CC1)OC(=O)N2

>  <system tested>
jimpy (Plp1 jimpy) mouse iPSC-derived oligodendrocyte progenitor cells;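 further: 10 µM single dose with 3-day oligodendrocyte differentiation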

>  <measurement kind>
MBP+ mature oligodendrocyte number

>  <readout qualifier>
=

>  <assay result>
-2.6

$$$$
